tested on: C3a anaphylatoxin chemotactic receptor (Homo sapiens) (UniProt Q16581)
Sequence (whole entry): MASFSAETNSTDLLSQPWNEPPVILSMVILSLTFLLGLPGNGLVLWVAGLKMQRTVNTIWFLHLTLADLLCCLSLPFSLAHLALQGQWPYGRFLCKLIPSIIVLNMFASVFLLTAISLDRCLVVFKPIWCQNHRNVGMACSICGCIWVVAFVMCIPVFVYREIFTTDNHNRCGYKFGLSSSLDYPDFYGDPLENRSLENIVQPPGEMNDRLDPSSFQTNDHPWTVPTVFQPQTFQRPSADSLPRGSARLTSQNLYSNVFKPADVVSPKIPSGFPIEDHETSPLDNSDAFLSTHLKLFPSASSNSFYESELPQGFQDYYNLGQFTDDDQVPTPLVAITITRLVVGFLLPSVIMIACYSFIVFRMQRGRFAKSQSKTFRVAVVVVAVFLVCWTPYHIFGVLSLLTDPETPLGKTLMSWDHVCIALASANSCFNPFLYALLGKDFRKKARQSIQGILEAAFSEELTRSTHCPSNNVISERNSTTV
protocol text: Antagonist activity at human C3a receptor expressed in RBL-2H3 cells assessed as inhibition of human recombinant C3a -induced beta-hexosaminidase activity in cell supernatant measuring minimum receptor activity compound preincubated for 10 mins by degranulation assay
Format: functional, cell-based
Parameters: scale not given: the % may be the effect or the level left
Measured Activity values are reported for all entries that follow.
metric: Activity

1. Ac-WWSRRWRASKLGLAR-OH: 40%
2. Ac-WWTRRWRTEKLGLAR-OH: 60%
3. Ac-WWTRRWRTDKLGLAR-OH: 60%
